assay: Phase 1 pharmacokinetic study of a single oral dose of 20 mg E4 monohydrate in female subjects with normal hepatic function and mild, moderate or severe hepatic impairment (plasma, LC-MS/MS, non-compartmental analysis); format: in vivo, human; settings: female, human, plasma, po, 20 mg, Normal hepatic function; single oral dose 20 mg E4 monohydrate; plasma; read-out: T1/2, GM (converted)
attribute-measured: half-life (h)
Express your answer in h, writing the number without its unit.

Problem: What does the record list as half-life for C[C@]12CC[C@@H]3c4ccc(O)cc4CC[C@H]3[C@@H]1[C@@H](O)[C@@H](O)[C@@H]2O ?
Result: 21.7

* * *

assay: Phase 1 pharmacokinetic study of a single oral dose of 20 mg E4 monohydrate in female subjects with normal hepatic function and mild, moderate or severe hepatic impairment (plasma, LC-MS/MS, non-compartmental analysis); type: in vivo, human; conditions: female, human, plasma, po, 20 mg, Moderate hepatic impairment; single oral dose 20 mg E4 monohydrate; plasma; read-out: AUCinf, Median
attribute-measured: AUC(0-inf) (ng·h/mL)
Field format: number, assumed ng·h/mL, no unit text.

Problem: Reported AUC(0-inf) for C[C@]12CC[C@@H]3c4ccc(O)cc4CC[C@H]3[C@@H]1[C@@H](O)[C@@H](O)[C@@H]2O [E4] : what is it?
Result: 115

* * *

Assay: Phase 1 pharmacokinetic study of a single oral dose of 20 mg E4 monohydrate in female subjects with normal hepatic function and mild, moderate or severe hepatic impairment (plasma, LC-MS/MS, non-compartmental analysis)
Format: in vivo, human
Details: female, human, plasma, po, 20 mg, Moderate (Test); one-way ANOVA; single oral dose 20 mg; read-out: Cmax, Geometric LS Mean
Method: This was a Phase 1, multi-centre, open-label, PK, and safety study of a single oral dose of 20 mg E4 monohydrate in female subjects with normal hepatic function (Group 1), mild hepatic impairment (Group 2), moderate hepatic impairment (Group 3), and severe hepatic impairment (Group 4), as defined using the Child-Pugh classification at Screening. […] PK parameters were calculated by non-compartmental analysis. […]
attribute-measured: Cmax (ng/mL)
Number only, in ng/mL; omit the unit.

Problem: What value of Cmax has been recorded for this entry: C[C@]12CC[C@@H]3c4ccc(O)cc4CC[C@H]3[C@@H]1[C@@H](O)[C@@H](O)[C@@H]2O [E4]
Result: 39.4

* * *

assay: Phase 1 pharmacokinetic study of a single oral dose of 20 mg E4 monohydrate in female subjects with normal hepatic function and mild, moderate or severe hepatic impairment (plasma, LC-MS/MS, non-compartmental analysis); assay type: in vivo, human; settings: female, human, plasma, po, 20 mg, Normal hepatic function; single oral dose 20 mg E4 monohydrate; plasma; read-out: AUCinf, Mean
attribute-measured: AUC(0-inf) (ng·h/mL)
Quick note: give the figure in ng·h/mL, leave out the unit.

Problem: Any idea what its AUC(0-inf) is? The compound is C[C@]12CC[C@@H]3c4ccc(O)cc4CC[C@H]3[C@@H]1[C@@H](O)[C@@H](O)[C@@H]2O
Result: 108

* * *

assay: Phase 1 pharmacokinetic study of a single oral dose of 20 mg E4 monohydrate in female subjects with normal hepatic function and mild, moderate or severe hepatic impairment (plasma, LC-MS/MS, non-compartmental analysis); type: in vivo, human; conditions: female, human, plasma, po, 20 mg, Normal hepatic function; single oral dose 20 mg E4 monohydrate; plasma; read-out: AUCinf, GM
attribute-measured: AUC(0-inf)
Quote the value and follow it with the unit of measurement.

Problem: Item under review: C[C@]12CC[C@@H]3c4ccc(O)cc4CC[C@H]3[C@@H]1[C@@H](O)[C@@H](O)[C@@H]2O . Reported AUC(0-inf)?
Result: 104 ng·h/mL
